Molecular target: Fc region prepared from human monoclonal IgG by papain digestion (human)
Experiment: SPR, Fc immobilized
pKd: −log10 of the molar value.
Lab note: anything with pKd at or over 8 counts as true (1); the rest go in false (0).

hey, is pKd for this one >= 8? variant polypeptide p17_M51A (peptide) peptide: GPGISAFSPGRGVYDPETGTWYDAAWHLGELVWATYYDPETGTWEPDWQRALGQ false (0)

hey, is pKd for this one >= 8? variant polypeptide p17_D47A (peptide) peptide: GPGISAFSPGRGVYDPETGTWYDAAWHLGELVWATYYDPETGTWEPAWQRMLGQ false (0)

hey, is pKd for this one >= 8? polypeptide p17 (peptide) peptide: GPGISAFSPGRGVYDPETGTWYDAAWHLGELVWATYYDPETGTWEPDWQRMLGQ true (1)

hey, is pKd for this one >= 8? variant polypeptide p17_W48A (peptide) peptide: GPGISAFSPGRGVYDPETGTWYDAAWHLGELVWATYYDPETGTWEPDAQRMLGQ false (0)

hey, is pKd for this one >= 8? variant polypeptide p17_P46A (peptide) peptide: GPGISAFSPGRGVYDPETGTWYDAAWHLGELVWATYYDPETGTWEADWQRMLGQ true (1)
